Assay: chemical genetic growth profiling, strain panel (AID 1159580);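 further: tested at 20 µM; growth read once vehicle control cultures reached saturation at 30 °C; 1 = growth at the plate median or of vehicle wells; lower values mean less growth of the strain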
Settings: S. cerevisiae deletion strains, growth OD, locus YLR342W, strain FKS1 (second series)
In all, about 5,500 compounds went through this assay and about 2,000 (36%) were called active. Not shown: some 18% with an inconclusive outcome. No stated cut-off is given here; in the data, active means normalized growth mostly below about 0.91 (no sharp cut-off); inconclusive means no clear call, values can overlap the other calls; inactive means mostly above about 0.92. Some of the results follow.
Would you mind answering with one of these outcomes? 1 = active, 0 = inactive

INPUT: Outcome logged for `CC(=O)Oc1cc(OC(C)=O)c2c(c1)O[C@H](c1ccc(OC(C)=O)c(OC(C)=O)c1)[C@H](OC(C)=O)C2` in this assay:
OUTPUT: 0

---

Assay: chemical genetic growth profiling, strain panel (AID 1159580);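 further: tested at 20 µM; growth read once vehicle control cultures reached saturation at 30 °C; 1 = growth at the plate median or of vehicle wells; lower values mean less growth of the strain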
Settings: S. cerevisiae deletion strains, growth OD, locus YDR392W, strain spt3
Out of some 5,500 compounds screened, about 2,000 (36%) were called active. Inconclusive results (about 18%) are left out. Rule as the data show it: active = normalized growth mostly below about 0.91 (no sharp cut-off); inconclusive = no clear call, values can overlap the other calls; inactive = mostly above about 0.92. The list shows a part of the results.
Would you mind answering with one of these outcomes? active, inactive

The following compounds have reported results that may help.
compound="CCN1CCCC(OC(=O)C(c2ccccc2)c2ccccc2)C1 (stereo unspecified)" discrete_label=inactive
compound=Oc1cc(O)c2c(c1)O[C@H](c1ccc(O)c(O)c1)[C@H](O)C2 discrete_label=inactive
compound=Oc1cc(O)c2c(c1)O[C@H](c1cc(O)c(O)c(O)c1)[C@H](O)C2 discrete_label=inactive
compound=Cc1ccc(S(=O)(=O)NC(=O)NN2CCCCCC2)cc1 discrete_label=inactive
compound="CC#CC1(O)CCC2C3CCC4=CC(=O)CCC4=C3C(c3ccc(N(C)C)cc3)CC21C (stereo unspecified)" discrete_label=inactive

INPUT: Outcome logged for `CC1(C)S[C@@H]2[C@H](NC(=O)[C@H](N)c3ccccc3)C(=O)N2[C@H]1C(=O)O` in this assay:
OUTPUT: inactive

INPUT: Outcome logged for `O=C(O)c1cc2cc(F)ccc2[nH]1` in this assay:
OUTPUT: inactive

INPUT: Outcome logged for `COc1ccc([C@H]2Oc3c(I)c(OC)cc(OC)c3C[C@@H]2O)cc1OC` in this assay:
OUTPUT: inactive

---

Test: chemical genetic growth profiling, strain panel (AID 1159580);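 further: tested at 20 µM; growth read once vehicle control cultures reached saturation at 30 °C; 1 = growth at the plate median or of vehicle wells; lower values mean less growth of the strain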
Conditions: S. cerevisiae deletion strains, growth OD, locus YER167W, strain BCK2, active compounds read low
Hit rate of the full screen: of about 5,500 compounds, about 2,000 (36%) were called active. About 18% were inconclusive and are not listed. The list shows a part of the results.
Quick reference for normalized growth among some compounds
Number only, no unit.

The cases that follow already have their normalized growth on record.
compound="Cc1ccccc1C(OCCN(C)C)c1ccccc1 (configuration not stated)" quantitative_result=1
compound="CC1(C)CCC[C@@]2(C)C1[C@@H](O)C[C@]1(C)C2CC[C@@H]2[C@@]3(C)CC[C@H](C(C)(C)O)[C@@H]3CC[C@@]21C (some centres not stated)" quantitative_result=0.997
compound=COc1ccc(-c2coc3cc(O)ccc3c2=O)c(OC)c1 quantitative_result=1.01
compound=O=c1cccc2ccc(O)c(O)c2c1O quantitative_result=0.45
compound="CCN1CCCC(OC(=O)C(c2ccccc2)c2ccccc2)C1 (configuration not stated)" quantitative_result=1.01

INPUT: Any idea what normalized growth was measured for `COC(=O)c1cc(=O)c(O)c2c(O)c(O)ccc2c1` ?
OUTPUT: 0.862

INPUT: Any idea what normalized growth was measured for `O=C1NCC2(CCN(CCc3ccccc3)CC2)O1` ?
OUTPUT: 1

INPUT: Any idea what normalized growth was measured for `O=c1c(-c2ccc(O)cc2)coc2cc(O)ccc12` ?
OUTPUT: 1

INPUT: Any idea what normalized growth was measured for `COc1ccc(-c2coc3cc(OC)ccc3c2=O)cc1` ?
OUTPUT: 0.906

INPUT: Any idea what normalized growth was measured for CN(C)CCOC(c1ccc(Cl)cc1)c1ccccn1 (configuration not stated) ?
OUTPUT: 0.99

INPUT: Any idea what normalized growth was measured for `CN1CCC(OC(c2ccccc2)c2ccccc2)CC1` ?
OUTPUT: 0.99

INPUT: Any idea what normalized growth was measured for `COc1ccc(-c2coc3cc(O)ccc3c2=O)c(OC)c1O` ?
OUTPUT: 0.983
